- Tested on: P450Cla
- protocolDetails: conversion of fatty acid substrates 1a-d with P450Cla, oxidant H2O2
- Assay type: biochemical
- conditionParameters: 10 mM substrate; H2O2 19.2 mM total; 3 µM P450Cla; 24 h, RT; values marked a based on substrate depletion
Marks after values point to notes of the source that are not given here.
For each entry below, report its Conversion value.

>  <compound>
CCCCCCCC(=O)O [Substrate 1b, octanoic acid]

>  <outcomeMeasure>
Conversion

>  <experimentalValue>
>99%

$$$$

For every listed record, write down its Conversion.
1. CCCCCCCCCCCC(=O)O [Substrate 1d, dodecanoic acid]
2. CCCCCCCCCC(=O)O [Substrate 1c, decanoic acid]
3. CCCCCC(=O)O [Substrate 1a, hexanoic acid]

1. >99^a %
2. >99^a %
3. 51%
